Source: paper PMC8389922

Assign β-strand-1 (regular β-strand) to each entry below.
# test: CD spectroscopy, secondary structure content (DichroWeb)
# Format: physicochemical
# conditions_used: CD in water, peptide 50 μM, 25 °C, DichroWeb
Bridge positions count the residues as written; N and C are the ends. Square brackets hold non-standard residues; d marks the D form. Peptide text beside a SMILES is read from it.
State the value, then name its unit.

Identify measured β-strand-1 (regular β-strand) corresponding to CC[C@H](C)[C@H](NC(=O)[C@H](CCCNC(=N)N)NC(=O)[C@@H]1CCCCNC(=O)CC[C@H](NC(=O)[C@H](Cc2ccccc2)NC(=O)[C@H](Cc2c[nH]c3ccccc23)NC(=O)[C@@H]2CCCN2C(=O)[C@@H](NC(=O)[C@@H](N)Cc2ccccc2)C(C)C)C(=O)N[C@@H](CCCCN)C(=O)N[C@@H](Cc2ccccc2)C(=O)N[C@H](CC(C)C)C(=O)N1)C(=O)N[C@@H](CC(C)C)C(N)=O [compound 24] (H-FVPWFEKF[dL]KRIL-NH2; lactam 6-10)
16%

Identify measured β-strand-1 (regular β-strand) corresponding to CC[C@H](C)[C@H](NC(=O)[C@H](CCCNC(=N)N)NC(=O)[C@]1(C)CCCC=CCCC[C@](C)(NC(=O)[C@H](Cc2ccccc2)NC(=O)[C@H](Cc2c[nH]c3ccccc23)NC(=O)[C@@H]2CCCN2C(=O)[C@@H](NC(=O)[C@@H](N)Cc2ccccc2)C(C)C)C(=O)N[C@@H](CCCCN)C(=O)N[C@@H](Cc2ccccc2)C(=O)N[C@H](CC(C)C)C(=O)N1)C(=O)N[C@@H](CC(C)C)C(N)=O [compound 25]
12%

Identify measured β-strand-1 (regular β-strand) corresponding to CC[C@H](C)[C@H](NC(=O)[C@H](CCCNC(=N)N)NC(=O)[C@@H]1CCC(=O)NCCCC[C@H](NC(=O)[C@H](Cc2ccccc2)NC(=O)[C@H](Cc2c[nH]c3ccccc23)NC(=O)[C@@H]2CCCN2C(=O)[C@@H](NC(=O)[C@@H](N)Cc2ccccc2)C(C)C)C(=O)N[C@@H](CCCCN)C(=O)N[C@@H](Cc2ccccc2)C(=O)N[C@H](CC(C)C)C(=O)N1)C(=O)N[C@@H](CC(C)C)C(N)=O [compound 12] (H-FVPWFKKF[dL]ERIL-NH2; lactam 6-10)
18%
